Molecular target: IRAK4 (Homo sapiens (Human))
Sequence (Q9NWZ3 whole entry): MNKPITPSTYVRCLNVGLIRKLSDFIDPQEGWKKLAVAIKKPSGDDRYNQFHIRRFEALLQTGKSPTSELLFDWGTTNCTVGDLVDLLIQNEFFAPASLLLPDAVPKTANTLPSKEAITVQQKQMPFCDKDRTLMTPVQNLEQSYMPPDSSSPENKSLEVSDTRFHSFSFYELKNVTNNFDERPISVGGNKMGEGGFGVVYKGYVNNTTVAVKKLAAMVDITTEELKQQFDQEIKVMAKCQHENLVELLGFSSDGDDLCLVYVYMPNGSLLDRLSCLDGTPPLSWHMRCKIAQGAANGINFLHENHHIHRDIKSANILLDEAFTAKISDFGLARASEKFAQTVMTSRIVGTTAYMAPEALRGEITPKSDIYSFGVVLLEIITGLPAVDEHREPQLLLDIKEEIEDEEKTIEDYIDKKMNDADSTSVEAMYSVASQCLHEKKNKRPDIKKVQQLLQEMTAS
Experiment: IRAK4 Degradation HiBiT Assay
Conditions: read-out: Cellular IRAK4 HiBiT: DC50; Table 5; multiple runs; HiBiT-tagged Jurkat cells, 4 hrs
measured.metric: DC50 (nM)

Record excerpt, results attached:
compound	uom	DC50
CNc1cc(-c2ccc3cc(C#N)cnn23)ncc1-c1nnc(C23CCC(NC(=O)CCOCCOCCOCCNc4cccc5c4C(=O)N(C4CCC(=O)NC4=O)C5=O)(CC2)CC3)s1 (stereo not shown)	nM	34.2
CNc1cc(-c2ccc3cc(C#N)cnn23)ncc1-c1nnc([C@H]2CC[C@@H](NC(=O)CCC(=O)N[C@H](C(=O)N3C[C@H](O)C[C@H]3C(=O)N[C@@H](C)c3ccc(-c4scnc4C)cc3)C(C)(C)C)CC2)s1	nM	1080
CNc1cc(-c2ccc3cc(C#N)cnn23)ncc1-c1nnc([C@H]2CC[C@H](NC(=O)CCCCCC(=O)N[C@H](C(=O)N3C[C@H](O)C[C@H]3C(=O)N[C@@H](C)c3ccc(-c4scnc4C)cc3)C(C)(C)C)CC2)s1	nM	58.2
CC(C)Nc1cc(-c2ccc3cc(C#N)cnn23)ncc1-c1nnc(N2CCC(NC(=O)C3CCN(Cc4ccc5c(c4)C(=O)N(C4CCC(=O)NC4=O)C5=O)CC3)CC2)s1 (stereo not shown)	nM	73.5

P: CNc1cc(-c2ccc3cc(C#N)cnn23)ncc1-c1nnc(N2CCN(C(=O)C3CCN(Cc4ccc5c(c4)C(=O)N(C4CCC(=O)NC4=O)C5=O)CC3)CC2)s1 (stereo not shown)
Q: CNc1cc(-c2ccc3cc(C#N)cnn23)ncc1-c1nnc(C23CCC(NC(=O)CCCC(=O)N[C@H](C(=O)N4C[C@H](O)C[C@H]4C(=O)NCc4ccc(-c5scnc5C)cc4)C(C)(C)C)(CC2)CC3)s1
R: CNc1cc(-c2ccc3cc(C#N)cnn23)ncc1-c1nnc(N2CCC(C3CCN(C(=O)CN4CCN(c5ccc6c(c5)C(=O)N(C5CCC(=O)NC5=O)C6=O)CC4)CC3)CC2)s1 (stereo not shown)
S: Cc1ncsc1-c1ccc(CNC(=O)[C@@H]2C[C@@H](O)CN2C(=O)[C@@H](NC(=O)C2(F)CC2)C(C)(C)C)c(OCCOCCOCCOCCC(=O)N2CCN(c3nnc(-c4cnc(-c5ccc6cc(C#N)cnn56)cc4NC(C)C)s3)CC2)c1
T: CNc1cc(-c2ccc3cc(C#N)cnn23)ncc1-c1nnc([C@H]2CC[C@H](NC(=O)CCC(=O)N[C@H](C(=O)N3C[C@H](O)C[C@H]3C(=O)N[C@@H](C)c3ccc(-c4scnc4C)cc3)C(C)(C)C)CC2)s1
Inquiry: Hi! Can you put these in order of DC50, lowest number first? Put the labels in the requested order and write them down.
Reply text: P, T, R, S, Q

A: CNc1cc(-c2ccc3cc(C#N)cnn23)ncc1-c1nnc(N2CCC(C(=O)N3CCN(Cc4ccc5c(c4)C(=O)N(C4CCC(=O)NC4=O)C5=O)CC3)CC2)s1 (stereo not shown)
B: CC(C)Nc1cc(-c2ccc3cc(C#N)cnn23)ncc1-c1nnc(N2CCN(CC3CCN(c4cccc5c4n(C)c(=O)n5C4CCC(=O)NC4=O)CC3)CC2)s1 (stereo not shown)
Inquiry: Between A and B , which one shows the larger DC50 value? Record your answer as the label of the chosen record.
Reply text: B
(B: 153 nM, A: 17.6 nM)

P: Cc1ncsc1-c1ccc(CNC(=O)[C@@H]2C[C@@H](O)CN2C(=O)[C@@H](NC(=O)C2(F)CC2)C(C)(C)C)c(OCCCC(=O)N2CCN(c3nnc(-c4cnc(-c5ccc6cc(C#N)cnn56)cc4NC(C)C)s3)CC2)c1
Q: Cc1ncsc1-c1ccc([C@H](C)NC(=O)[C@@H]2C[C@@H](O)CN2C(=O)[C@@H](NC(=O)CCCCCC(=O)N2CCN(c3nnc(-c4cnc(-c5ccc6cc(C#N)cnn56)cc4NC(C)C)s3)CC2)C(C)(C)C)cc1
R: CNc1cc(-c2ccc3cc(C#N)cnn23)ncc1-c1nnc(N2CCN(C(=O)C3CC4(CCN(c5ccc6c(c5)C(=O)N(C5CCC(=O)NC5=O)C6=O)C4)C3)CC2)s1 (stereo not shown)
Inquiry: Hi! Can you put these in order of DC50, lowest number first? Put the labels in the requested order and write them down.
Reply text: R, P, Q
(R: 19.1 nM, P: 137 nM, Q: 220 nM)
